Taken from patent US20050222146A1.

The reader will find IC50 measurements below, all made with MMP-1 (Homo sapiens).
Sequence (P03956 100-469, species assumed): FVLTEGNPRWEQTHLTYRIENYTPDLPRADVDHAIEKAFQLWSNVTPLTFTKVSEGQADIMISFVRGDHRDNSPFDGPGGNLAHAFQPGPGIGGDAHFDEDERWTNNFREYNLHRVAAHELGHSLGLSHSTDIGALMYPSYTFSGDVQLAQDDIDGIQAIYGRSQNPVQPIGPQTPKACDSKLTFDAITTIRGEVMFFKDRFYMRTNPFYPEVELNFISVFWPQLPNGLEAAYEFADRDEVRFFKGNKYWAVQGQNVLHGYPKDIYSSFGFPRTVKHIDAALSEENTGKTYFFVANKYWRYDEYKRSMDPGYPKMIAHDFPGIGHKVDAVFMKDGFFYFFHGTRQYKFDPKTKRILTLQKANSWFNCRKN

{"COMPOUND": "O=C(O)c1cccc(CN(C2(C(=O)O)CC2c2cccc(OCCn3ccnc3)c2)S(=O)(=O)c2ccc(-c3ccc(Cl)cc3)cc2)c1 (stereo not drawn)", "TARGET": "MMP-1 (Homo sapiens)", "REPORTED PROPERTY": "IC50", "RESULT": "≥ 1 µM"}
{"COMPOUND": "N#Cc1ccc([C@@H]2C[C@@]2(C(=O)O)N(CC(=O)O)S(=O)(=O)c2ccc(-c3ccc(Cl)cc3)cc2)cc1 (relative stereo)", "TARGET": "MMP-1 (Homo sapiens)", "REPORTED PROPERTY": "IC50", "RESULT": "≥ 10 µM"}

Now consider the entry below.
MMP-1 (Homo sapiens) / IC50 / O=C(O)[C@@]1(N(CCCNc2nn[nH]n2)S(=O)(=O)c2ccc(-c3ccc(Cl)cc3)cc2)C[C@H]1c1ccccc1 (relative stereo) : value?
≥ 10 µM
